- TEST PROTOCOL: Ratio of resveratrol IC50 to compound IC50 for DPPH free radical scavenging activity
Label rule, in plain words: Ratio IC50 of 1 and up is Yes, under 1 is No.

Oc1ccc(/N=C/c2c(O)ccc3ccccc23)c(O)c1 = Yes

Could you tell me if the measured Ratio IC50 of `Oc1ccc(CNc2ccccc2O)cc1O` reaches 1 or more? Yes

Kindly determine if Ratio IC50 recorded for `Oc1cccc(CNc2ccccc2O)c1` is above or exactly 1. Yes

Test whether the compound `O=C1O[C@H]([C@@H](O)CO)C(O)=C1O` records Ratio IC50 of 1 or higher. Yes

Hi team, for `Oc1ccc(CNc2ccccc2O)cc1` , is the recorded Ratio IC50 at or above 1? Yes

Ratio IC50 >= 1 for `Oc1c(I)cc(Cl)c2cccnc12` ? No

Could you verify whether the entry `Oc1ccccc1/N=C/c1c(O)ccc2ccccc12` shows Ratio IC50 of no less than 1? No
